// data source = paper PMC8002271

Tested on: LLC-MK2 normal cell line
Assay: MTT cell viability assay, LLC-MK2 normal cells
Format: cell-based
Conditions: Macaca mulatta, LLC-MK2, 24 h, read-out: IC50 LLC-MK2
Description: The cell viability assays of coumarin derivatives 10, 12, 13, 14a–g, and 15 were conducted against three cancer cell lines (HepG2, HeLa, and MDA-MB-231) and one normal cell line (LLC-MK2) using an MTT assay. Stock solutions of coumarin derivatives 10, 12a, 13, 14a–g, and 15 were prepared in EtOH at a concentration of 5000 µg/mL. […] Finally, the optical density at 450 nm was determined using a microplate reader.
Measured parameter: pIC50
Field pIC50 (float): negative decimal logarithm of the concentration in molar.

Input: Param item = CC(C)=CCc1cc2ccc(=O)oc2cc1O [compound 15, 6-(3-Methyl-2-buteny1)-7-hydroxycoumarin] ; retrieve measured pIC50.
Output: 5.16
